molecular target: Heparanase (Homo sapiens, UniProt Q9Y251, K307R); test: Dimerization assay (H53 hetero-dimer formation, di-methyl-methylene-blue); format: biochemical; details: inhibition of H53 hetero-dimer formation by H8-derived peptides; read-out: IC50 H53
Sequence (Q9Y251 158-543 K307R limits assumed): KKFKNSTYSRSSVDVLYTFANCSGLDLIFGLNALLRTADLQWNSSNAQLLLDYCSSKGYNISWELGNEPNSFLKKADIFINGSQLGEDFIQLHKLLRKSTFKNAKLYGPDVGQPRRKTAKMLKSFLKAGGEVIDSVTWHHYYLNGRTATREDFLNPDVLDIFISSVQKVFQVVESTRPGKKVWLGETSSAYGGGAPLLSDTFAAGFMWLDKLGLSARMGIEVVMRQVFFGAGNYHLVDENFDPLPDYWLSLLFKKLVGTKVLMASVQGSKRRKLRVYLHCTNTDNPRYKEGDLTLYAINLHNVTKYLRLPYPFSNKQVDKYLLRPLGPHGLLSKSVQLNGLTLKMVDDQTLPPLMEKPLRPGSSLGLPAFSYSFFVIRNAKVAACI
Sequence (Q9Y251 36-109 limits assumed): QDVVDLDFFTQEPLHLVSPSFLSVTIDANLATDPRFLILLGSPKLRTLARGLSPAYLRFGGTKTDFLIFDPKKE
Where no end group is shown, it is not given here.
pIC50 reference
Please report pIC50 as the negative decimal logarithm of the molar concentration, giving only the number.

Would you please look over these solved cases?
> print(dat)
                   query.sequence  numeric.readout
1   FLILLGSPKLRTL [Compound P8-8]             5.10
2  CPAYLRFGGTKTDFLIFDPLLE [Pep-7]             5.15

Consider the record given below.
Given the sequence DPRFLILL [Compound P8-16] , what is its reported pIC50? 5.22

Data origin: patent US20050042213A1
